Target: mMASP-2 (Mus musculus (Mouse))
Sequence (Q91WP0 20-685): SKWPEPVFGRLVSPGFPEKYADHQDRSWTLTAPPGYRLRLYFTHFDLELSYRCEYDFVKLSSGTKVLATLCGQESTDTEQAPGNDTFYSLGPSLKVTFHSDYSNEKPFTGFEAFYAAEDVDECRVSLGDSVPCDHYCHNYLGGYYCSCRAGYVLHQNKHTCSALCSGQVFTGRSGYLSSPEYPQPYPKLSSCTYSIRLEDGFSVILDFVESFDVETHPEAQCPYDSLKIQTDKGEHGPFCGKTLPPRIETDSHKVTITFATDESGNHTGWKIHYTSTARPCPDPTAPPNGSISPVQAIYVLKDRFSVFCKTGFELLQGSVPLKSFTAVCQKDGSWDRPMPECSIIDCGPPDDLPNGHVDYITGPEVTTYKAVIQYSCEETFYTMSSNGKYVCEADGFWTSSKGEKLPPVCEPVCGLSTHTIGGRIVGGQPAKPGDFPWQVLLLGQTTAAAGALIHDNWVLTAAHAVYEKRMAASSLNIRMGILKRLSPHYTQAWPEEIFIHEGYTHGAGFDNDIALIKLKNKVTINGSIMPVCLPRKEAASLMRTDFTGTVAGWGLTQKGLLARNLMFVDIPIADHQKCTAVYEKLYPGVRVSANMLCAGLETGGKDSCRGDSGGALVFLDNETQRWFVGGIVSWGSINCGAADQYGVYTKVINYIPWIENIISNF
Experiment: Enzymatic inhibition of mMASP-2
Type: biochemical
Conditions: read-out: mMASP-2 Ki
pKi: −log10 of the molar value. Structures can show the parent of a compound that is named as a salt.
The following compounds are shown together with reported pKi values.

Qu. I have this compound here, C[C@H](OC(=O)[C@H](N)CCc1ccccc1)C(=O)NCc1ccc(C(=N)N)cc1 [compound 1315, Hydrochloride] , and I need its recorded pKi.
Ans. > 6.30

Qu. I have this compound here, COc1ccccc1CC[C@@H](N)C(=O)N[C@@H](C)C(=O)NCc1ccc(C(=N)N)cc1 , and I need its recorded pKi.
Ans. > 6.30

Qu. I have this compound here, Cc1nc(N)ccc1CNC(=O)[C@H](C)NC(=O)[C@H]1C[C@H](c2ccccc2)CN1 , and I need its recorded pKi.
Ans. 5.00 to 5.60

Qu. I have this compound here, C[C@H](NC(=O)[C@H]1C[C@H](Cc2cccc3ccccc23)CN1)C(=O)NCc1cnc2[nH]cc(Cl)c2c1 [compound 1415, Hydrochloride] , and I need its recorded pKi.
Ans. > 6.30

Qu. I have this compound here, C[C@H](NC(=O)[C@H]1C[C@H](c2ccccc2)CN1)C(=O)NCc1cc(Cl)cc(C(N)=O)c1 [compound 1387, Trifluoroacetate salt] , and I need its recorded pKi.
Ans. 4.60 to 5.00

Qu. I have this compound here, Cc1cc(Br)cc(CNC(=O)[C@H](C)NC(=O)[C@H]2C[C@H](Cc3ccccc3)CN2)c1-n1cnnn1 [compound 1436, Trifluoroacetate] , and I need its recorded pKi.
Ans. < 4.60
